- assaySystem: T1, monovalent hVISTA-ECD with polyhistidine tail (SEQ ID NO: 325) (human, UniProt Q9H7M9 33-193)
- T1 construct: also called hVISTA-ECD 6-His tag; human VISTA
- T1 sequence (Q9H7M9 other isoform, or with tags, fused parts or gaps limits assumed): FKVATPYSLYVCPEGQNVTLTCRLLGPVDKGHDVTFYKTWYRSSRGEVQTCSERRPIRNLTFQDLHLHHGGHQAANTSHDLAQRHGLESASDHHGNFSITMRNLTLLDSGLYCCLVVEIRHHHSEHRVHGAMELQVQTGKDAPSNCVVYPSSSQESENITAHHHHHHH
- runDescription: SPR, mAb captured on Protein A chip, hVISTA injected, PBST pH 6.0, 37 C
pKd: −log10 of the molar value.
Listed below: pKd values for each entry.
assayReadout: pKd

binder: P1-077877 (P1-068748 H32Y D57K) (antibody, V domains shown, Reversion mutant of P1-068748 (Kabat names); captured on a Protein A chip) VH: QVQLVESGGGVVQPGRSLRLSCAASGFTFSHYAMHWVRQAPGKGLEWVAIIWYDGSNKDYADSVKGRFTISRDNSKNTLYLQMNSLRAEDTAVYYCARDSGFYDSYYFDYWGQGTLVTVSS VL: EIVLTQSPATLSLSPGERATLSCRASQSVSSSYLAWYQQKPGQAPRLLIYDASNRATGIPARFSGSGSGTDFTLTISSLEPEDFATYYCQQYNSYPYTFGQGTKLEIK
testResult: 8.66
--
binder: P1-077869 (P1-068748 D57K) (antibody, V domains shown, Reversion mutant of P1-068748 (Kabat names); captured on a Protein A chip) VH: QVQLVESGGGVVQPGRSLRLSCAASGFTFSHHAMHWVRQAPGKGLEWVAIIWYDGSNKDYADSVKGRFTISRDNSKNTLYLQMNSLRAEDTAVYYCARDSGFYDSYYFDYWGQGTLVTVSS VL: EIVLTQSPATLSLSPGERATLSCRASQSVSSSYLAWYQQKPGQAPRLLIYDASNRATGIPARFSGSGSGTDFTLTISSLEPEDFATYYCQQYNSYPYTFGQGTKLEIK
testResult: 7.82
--
binder: P1-077889 (P1-068748 H32Y D58Y) (antibody, V domains shown, Reversion mutant of P1-068748 (Kabat names); captured on a Protein A chip) VH: QVQLVESGGGVVQPGRSLRLSCAASGFTFSHYAMHWVRQAPGKGLEWVAIIWYDGSNDYYADSVKGRFTISRDNSKNTLYLQMNSLRAEDTAVYYCARDSGFYDSYYFDYWGQGTLVTVSS VL: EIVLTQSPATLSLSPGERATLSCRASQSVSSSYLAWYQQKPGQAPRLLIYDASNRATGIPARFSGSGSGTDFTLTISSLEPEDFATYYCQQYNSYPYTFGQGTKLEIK
testResult: 6.89

These data points were gathered from patent US20230192860A1.
